From: patent US7208517B1

# assay details: pH-solubility profile: maximum solubility in aqueous media at varying pH
# Assay type: physicochemical
# assay conditions: aqueous buffer, pH 6.5, about 25° C.
reported metric: solubility

CCCCN(C(=O)CN1CC(c2ccc3c(c2)OCO3)C(C(=O)O)C1c1ccc(OC)cc1)c1cccnc1 (stereo not shown)    > 3400 µg/mL

----------
# assay details: pH-solubility profile: maximum solubility in aqueous media at varying pH
# Format: physicochemical
# assay conditions: aqueous buffer, pH 7.1, about 25° C.
reported metric: solubility

CCCCN(C(=O)CN1CC(c2ccc3c(c2)OCO3)C(C(=O)O)C1c1ccc(OC)cc1)c1cccnc1 (stereo not shown)    3540 µg/mL

----------
# tested system: ETB receptors of porcine cerebellar tissues (pET-B) (Sus scrofa)
# Construct: porcine cerebellar tissues (known to contain ETB receptors); from tissue; host or cells: porcine cerebellum (membranes)
# Sequence (P35463 27-443): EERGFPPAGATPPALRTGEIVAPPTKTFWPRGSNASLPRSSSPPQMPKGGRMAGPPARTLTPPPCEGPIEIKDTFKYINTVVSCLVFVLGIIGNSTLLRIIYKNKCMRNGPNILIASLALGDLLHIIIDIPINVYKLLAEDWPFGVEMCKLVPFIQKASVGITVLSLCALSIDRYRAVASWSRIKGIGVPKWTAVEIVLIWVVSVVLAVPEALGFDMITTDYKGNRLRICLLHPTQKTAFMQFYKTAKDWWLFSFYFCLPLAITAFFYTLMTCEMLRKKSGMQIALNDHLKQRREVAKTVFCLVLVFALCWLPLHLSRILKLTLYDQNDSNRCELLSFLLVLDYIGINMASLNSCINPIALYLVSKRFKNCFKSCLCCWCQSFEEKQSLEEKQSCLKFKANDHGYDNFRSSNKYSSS
# assay details: ETA/ETB selectivity: (125I)ET-3 competition binding, ETB assay in porcine cerebellum membranes (pET-B)
pIC50: −log10 of the molar value.
reported metric: pIC50

CCCCN(CCCC)C(=O)CN1C[C@H](c2cc(OC)c3c(c2)OCO3)[C@@H](C(=O)O)[C@@H]1CC(C)(C)CCC [compound 536]    4.77
CCCCN(CCCC)C(=O)CN1CC(c2cc(OC)c3c(c2)OCO3)C(C(=O)O)C1CC(C)(C)CCC (stereo not shown) [compound 514]    4.59
CCCCN(CCCC)C(=O)CN1CC(c2ccc3c(c2)OCO3)C(C(=O)O)C1CCc1ccccn1 (stereo not shown) [compound 519]    4.85
CCCCN(CCCC)C(=O)CN1CC(c2ccc3c(c2)OCO3)C(C(=O)O)C1CC(C)CCC (stereo not shown) [compound 502]    4.15

----------
# assay details: pH-solubility profile: maximum solubility in aqueous media at varying pH
# Format: physicochemical
# assay conditions: aqueous buffer, pH 5.1, about 25° C.
reported metric: solubility

CCCCN(C(=O)CN1CC(c2ccc3c(c2)OCO3)C(C(=O)O)C1c1ccc(OC)cc1)c1cccnc1 (stereo not shown)    > 3.3 mg/mL

----------
Overview of recorded pIC50 for various compounds
# tested system: human ETA receptor (Homo sapiens, UniProt P25101)
# Construct: expressed in transfected cells; host or cells: CHO cells, permanently transfected
# Sequence (P25101 21-427): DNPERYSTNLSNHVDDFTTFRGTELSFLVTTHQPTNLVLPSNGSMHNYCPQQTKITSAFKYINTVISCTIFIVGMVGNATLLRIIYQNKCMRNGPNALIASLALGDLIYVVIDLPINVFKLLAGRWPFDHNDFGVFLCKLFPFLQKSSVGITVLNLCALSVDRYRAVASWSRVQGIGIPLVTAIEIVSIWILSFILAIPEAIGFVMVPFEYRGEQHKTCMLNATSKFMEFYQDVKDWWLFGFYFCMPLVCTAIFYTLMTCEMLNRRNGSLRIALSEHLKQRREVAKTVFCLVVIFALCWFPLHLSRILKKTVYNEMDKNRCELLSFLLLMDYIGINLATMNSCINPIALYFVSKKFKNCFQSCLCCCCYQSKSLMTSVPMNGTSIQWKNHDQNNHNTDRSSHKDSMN
# assay details: ETA/ETB selectivity: (125I)ET-1 competition binding, CHO cells transfected with human ETA receptor (hET-A)
# assay conditions: CHO cells transfected with human ETA receptor; 0.1 nM (125I)ET-1; read-out: hET-A IC50
pIC50: −log10 of the molar value.
reported metric: pIC50

CCCON(CCC)C(=O)CN1CC(c2ccc3c(c2)OCO3)C(C(=O)O)C1c1ccc(OC)cc1 (stereo not shown)    9.09
CCCCN(CCCC)C(=O)CN1CC(c2ccc3c(c2)OCO3)C(C(=O)O)C1CCc1ccccn1 (stereo not shown)    9.64
CCCCN(CCCC)C(=O)CN1CC(c2ccc3c(c2)OCO3)C(C(=O)O)C1CCC1CCCCO1 (stereo not shown)    8.24
CCCCN(CCCC)C(=O)CN1CC(c2cc(OC)c3c(c2)OCO3)C(C(=O)O)C1CC(C)(C)C1OCCO1 (stereo not shown)    8.74
CCCC(CCC)N(C(=O)CN1CC(c2cc(OC)c3c(c2)OCO3)C(C(=O)O)C1CCC1OCCO1)c1ccc(F)c(C)c1 (stereo not shown)    9.44
CCCCN(CCCC)C(=O)CN1C[C@H](c2ccc3c(c2)CCO3)[C@@H](C(=O)O)[C@@H]1CC(C)(C)CCC    8.17
CCCCN(CCCC)C(=O)CN1CC(c2ccc3c(c2)OCO3)C(C(=O)O)C1CCN1CCCC1=O (stereo not shown)    9.24
